All values here come from ChEMBL document CHEMBL1157702.

Below is a list of entries, each paired with its recorded Ratio IC50 value.
Assay: Selectivity ratio of IC50 for human recombinant full length p38alpha to IC50 for mouse full length GST-tagged B-Raf V600E mutant
measured_quantity: Ratio IC50

Cc1ccc(-c2[nH]c(C(F)(F)F)nc2C(=O)Nc2ccc(C)c(Nc3ccc4ncn(C)c(=O)c4c3)c2)cc1F 312
Cc1ccc(NC(=O)c2nc(-c3ccccc3)[nH]c2-c2ccccc2)cc1Nc1ccc2ncn(C)c(=O)c2c1 2.5
Cc1ccc(NC(=O)c2nc(C(F)(F)F)[nH]c2-c2ccc(F)c(Cl)c2)cc1Nc1ccc2ncn(C)c(=O)c2c1 0.9
Cc1ccc(NC(=O)c2nc(C(F)(F)F)[nH]c2-c2cccc(C(F)(F)F)c2)cc1Nc1ccc2ncn(C)c(=O)c2c1 2.1
